target-under-test: T1, CD27 protein (His-tagged, Sino Biological Inc. 10039-H08B1) (human, UniProt P26842 20-192)
T1 construct: bought; coated onto ELISA plates; also called human CD27; recombinant protein; not shown: His tag
T1 sequence (looked up): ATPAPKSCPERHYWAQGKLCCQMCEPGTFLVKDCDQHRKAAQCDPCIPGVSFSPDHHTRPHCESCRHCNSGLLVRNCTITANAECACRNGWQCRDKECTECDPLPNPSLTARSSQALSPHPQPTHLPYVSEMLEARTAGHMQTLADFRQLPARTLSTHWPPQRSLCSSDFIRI
test-description: ELISA on coated His-tagged CD27; further: test concentration or dose not given here
This section presents binders with their documented ELISA [abs. corr.] values.
measured-metric: ELISA [abs. corr.]

binder="P018.S.01.A.G06 (antibody, V domains shown, V regions on human Ig constant parts; also called AB27_24) VH: QSLEESGGGLFKPTDTLTLTCTVSGIDLSRYAMGWVRQAPGKGLEYIGIISVGGGTYYANWIKGRFTISSTSTTVDLKITSPTTEDTATYFCARSPYASTSASAFNLWGPGTLVTVSS VL: AFELTQTPSSVEAAVGGTVTIKCQASQSIYSYLSWYQQKPGQPPKLLIYEASKLASGVPSRFSGSGSGTQFTLTISDLESADAATYYCQSYSNTNTNTFGGGTEVVVK" result="3.17 abs. corr."
binder="P018.S.07.A.B04 (antibody, V domains shown, V regions on human Ig constant parts; also called AB27_116) VH: QSVEESGGRLVTPGTPLTLTCTVSGFSLSSYDMIWVRQAPGKGLEWIGIIYLTDTTYYANWTKGRFTISKTSTTVDLKISSPTTEDTATYFCARHLDTSSGGFYFNLWGQGTLVTVSS VL: AQVLTQTPSSVSAAVGGTVTINCQASQSVYNSKILAWYQQKPGRPPKLLIYDASTLASGVPSRFKGSGSGTQFTLTISGVQSDDAATYFCQGEFTCTSADCIAFGGGTEVVVK" result="3.63 abs. corr."

Recorded values, source patent US20210253725A1.
